Quick reference for protein stability index among some variants
B1: ZC3H15 (parent)
chain: RKADFKAGKALVISGREVFEFRPE

Variants of: B1
Test summary: protein stability index of a GFP-peptide fusion (GPS, HEK-293T) (PSI 1-6); higher = more stable;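 also: lentivirally expressed fusions sorted by FACS into six bins by GFP to DsRed ratio, PSI derived from sequencing read proportions per bin multiplied by bin number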
Applied conditions: c terminus: a fixed tail appended

Some solved cases for reference:
Mutation code | protein stability index
E20I | 1.71
K6N | 3.22
A7V | 2.91
P23H | 2.62
E17R | 2.67
G15Q | 2.92
P23Q | 3.31
K2N | 3.24
F19C | 3.76
A3V | 2.61

variant R1V , protein stability index observed: 2.02

Per the records, this variant ( G15M ) has protein stability index equal to 2.04

Given item F21S , the value recorded as its protein stability index is 3.91

According to the records, this variant E20T displays protein stability index of 2.73

GET /value?item= I13W &field=protein stability index returns 2.8

# variant E24H ; its protein stability index = 2.18

Lab note: measured protein stability index of G8W was 1.79

P23V has a reported protein stability index of 1.94

According to the records, this variant E17I displays protein stability index of 1.64

# variant G8T ; its protein stability index = 2.78

response.value for I13S (field: protein stability index) = 3.8

get_value(item= V18T , readout=protein stability index) returns 3.32

# protein stability index (variant: R1Y ) is 2.81

For F5Y the variant record lists protein stability index as 3.16

Memo: E17N , reported protein stability index: 2.57

Entry under test: R22V . Its protein stability index was 2.78

So, I13P ? Its protein stability index was 3.48

# variant S14G ; its protein stability index = 3.11
